- assayedSystem: STAT5a (Homo sapiens)
- Construct: made in house
- Sequence (P42229 1-794): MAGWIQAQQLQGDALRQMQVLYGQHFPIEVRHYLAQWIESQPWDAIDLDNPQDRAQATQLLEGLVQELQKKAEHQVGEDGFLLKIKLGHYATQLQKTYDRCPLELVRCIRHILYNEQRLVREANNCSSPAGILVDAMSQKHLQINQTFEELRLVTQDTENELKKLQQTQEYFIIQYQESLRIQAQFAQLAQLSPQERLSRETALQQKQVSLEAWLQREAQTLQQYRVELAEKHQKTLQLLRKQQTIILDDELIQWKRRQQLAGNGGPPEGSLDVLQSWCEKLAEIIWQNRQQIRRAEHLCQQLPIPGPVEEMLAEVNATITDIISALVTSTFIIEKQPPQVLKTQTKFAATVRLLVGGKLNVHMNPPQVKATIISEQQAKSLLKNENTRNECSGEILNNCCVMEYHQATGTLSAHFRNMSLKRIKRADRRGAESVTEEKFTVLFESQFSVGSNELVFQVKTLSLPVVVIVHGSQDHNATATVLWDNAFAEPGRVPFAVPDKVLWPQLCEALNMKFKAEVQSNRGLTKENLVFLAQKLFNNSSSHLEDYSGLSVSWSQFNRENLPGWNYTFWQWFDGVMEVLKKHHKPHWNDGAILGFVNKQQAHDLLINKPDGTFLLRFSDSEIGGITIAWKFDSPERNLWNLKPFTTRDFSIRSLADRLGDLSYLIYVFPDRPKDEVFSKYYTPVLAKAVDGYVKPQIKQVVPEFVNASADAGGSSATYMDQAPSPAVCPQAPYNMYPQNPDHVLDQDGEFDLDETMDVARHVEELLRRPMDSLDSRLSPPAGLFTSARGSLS
- protocolNotes: Fluorescence polarization competitive binding assay, STAT5a
Catalogue of Ki readings, one per entry.

[
  {
    "inputSmiles": "COc1ccccc1-c1cc(OP(=O)(O)O)cc(-c2ccccc2OC)c1",
    "Ki / µM": 43.9
  },
  {
    "inputSmiles": "COc1ccc(-c2cc(OP(=O)(O)O)cc(-c3ccc(OC)c(OC)c3OC)c2)c(OC)c1OC",
    "Ki / µM": 55.2
  },
  {
    "inputSmiles": "O=P(O)(O)Oc1cc(-c2ccc3c(c2)OCO3)cc(-c2ccc3c(c2)OCO3)c1",
    "Ki / µM": 14
  },
  {
    "inputSmiles": "COc1cccc(-c2cc(OP(=O)(O)O)cc(-c3cccc(OC)c3OC)c2)c1OC",
    "Ki / µM": 22.3
  },
  {
    "inputSmiles": "COc1cc(-c2cccc(OP(=O)(O)O)c2)cc(OC)c1OC",
    "Ki / µM": 53
  },
  {
    "inputSmiles": "COc1cccc(-c2cc(OP(=O)(O)O)cc(-c3cccc(OC)c3)c2)c1",
    "Ki / µM": 16
  },
  {
    "inputSmiles": "O=P(O)(O)Oc1cc(-c2cc(F)c(F)c(F)c2)cc(-c2cc(F)c(F)c(F)c2)c1",
    "Ki / µM": 10.8
  },
  {
    "inputSmiles": "COc1cc(-c2cc(OP(=O)(O)O)cc(-c3cc(OC)c(OC)c(OC)c3)c2)cc(OC)c1OC",
    "Ki / µM": 10.9
  }
]

Recorded values, source paper PMC6973011.
